Molecular target: Amine oxidase [flavin-containing] B (Homo sapiens, UniProt P27338)
Sequence (P27338 whole entry): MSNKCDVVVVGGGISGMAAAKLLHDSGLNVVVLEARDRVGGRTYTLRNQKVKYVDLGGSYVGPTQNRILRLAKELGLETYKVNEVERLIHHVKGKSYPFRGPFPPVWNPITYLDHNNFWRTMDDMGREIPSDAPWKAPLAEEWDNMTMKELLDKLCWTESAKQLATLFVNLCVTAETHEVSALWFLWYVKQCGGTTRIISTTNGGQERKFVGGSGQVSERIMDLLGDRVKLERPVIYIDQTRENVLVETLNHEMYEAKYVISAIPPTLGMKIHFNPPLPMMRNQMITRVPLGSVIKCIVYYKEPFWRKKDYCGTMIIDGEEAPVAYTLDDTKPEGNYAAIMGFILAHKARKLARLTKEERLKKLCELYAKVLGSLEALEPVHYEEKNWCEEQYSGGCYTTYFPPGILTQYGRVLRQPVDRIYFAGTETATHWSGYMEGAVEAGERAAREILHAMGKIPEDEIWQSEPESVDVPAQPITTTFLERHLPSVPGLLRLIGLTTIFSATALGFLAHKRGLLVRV
Type: cell-based, BTI-TN-5B1-4
Description: Inhibition of human recombinant MAOB expressed in BTI-TN-5B1-4 cells by para-tyramine oxidation assay
Reported pIC50 is given for each of the following molecules.
Reminder that pIC50 is minus the log10 of a molar concentration.

As a guide, the following entries are already answered.
Cc1ccc(-c2cc(=O)c3ccc(F)cc3o2)cc1 ... 5.36
COc1ccc2c(=O)cc(-c3ccc(C)cc3)oc2c1 ... 4.95
COc1ccc2c(c1)OC(c1ccc(F)cc1)CC2=O (racemic) ... 6.77
Cc1ccc(C2CC(=O)c3ccccc3O2)cc1 (racemic) ... 5.68
Cc1ccc([C@H]2CC(=O)c3ccc(C)cc3O2)cc1 ... 6.28

IN: State the measured pIC50 (Amine oxidase [flavin-containing] B (Homo sapiens, UniProt P27338)) of "Cc1ccc(-c2cc(=S)c3ccccc3o2)cc1"
OUT: 5.17

IN: Write down the reported pIC50 (system: Amine oxidase [flavin-containing] B (Homo sapiens, UniProt P27338)) of "Cc1ccc(-c2cc(=S)c3ccc(F)cc3o2)cc1"
OUT: 5.79

IN: Report value: pIC50, system: Amine oxidase [flavin-containing] B (Homo sapiens, UniProt P27338), molecule: O=C1CC(c2ccc(F)cc2)Oc2ccccc21 (racemic)
OUT: 5.36

IN: Give pIC50 only, for Cc1ccc2c(c1)OC(c1ccc(F)cc1)CC2=O (racemic) , using Amine oxidase [flavin-containing] B (Homo sapiens, UniProt P27338) data.
OUT: 6.89

IN: Please report the measured pIC50 for "Cc1ccc([C@@H]2CC(=O)c3ccc(C)cc3O2)cc1" tested on Amine oxidase [flavin-containing] B (Homo sapiens, UniProt P27338).
OUT: 6.23

IN: Tell me its pIC50 on Amine oxidase [flavin-containing] B (Homo sapiens, UniProt P27338): Cc1ccc2c(c1)OC(c1ccccc1)CC2=O (racemic)
OUT: 5.44

IN: Recall the reported pIC50 of Cc1ccc(C2CC(=O)c3ccc(F)cc3O2)cc1 (racemic) when tested on Amine oxidase [flavin-containing] B (Homo sapiens, UniProt P27338).
OUT: 6.80

IN: // output pIC50; input "COc1ccc(-c2cc(=S)c3ccccc3o2)cc1" ; system Amine oxidase [flavin-containing] B (Homo sapiens, UniProt P27338)
OUT: 6.32

IN: Report pIC50 under test system Amine oxidase [flavin-containing] B (Homo sapiens, UniProt P27338) for COc1ccc(C2CC(=O)c3ccccc3O2)cc1 (racemic) .
OUT: 5.66

IN: State measured pIC50 of the molecule "COc1ccc2c(=S)cc(-c3ccc(C)cc3)oc2c1" with Amine oxidase [flavin-containing] B (Homo sapiens, UniProt P27338).
OUT: 5.12

IN: Would you please give the reported pIC50 of Cc1ccc(C2CC(=O)c3ccc(C)cc3O2)cc1 (racemic) with Amine oxidase [flavin-containing] B (Homo sapiens, UniProt P27338)?
OUT: 6.30

IN: Enter measured pIC50, system Amine oxidase [flavin-containing] B (Homo sapiens, UniProt P27338), for the molecule shown: COc1ccc2c(c1)OC(c1ccccc1)CC2=O (racemic)
OUT: 5.83

---

Biological target: Amine oxidase [flavin-containing] B (Homo sapiens, UniProt P27338)
Type: cell-based, BTI-TN-5B1-4
Recorded measurements of pIC50, one per entry
# pIC50 = -log10(concentration in molar units)

# example entries with known answers
O=C1CC(c2ccccc2)Oc2ccccc21 (racemic) ... 5.54
COc1ccc(C2CC(=O)c3ccc(C)cc3O2)cc1 (racemic) ... 5.47
Cc1ccc(-c2cc(=O)c3ccccc3o2)cc1 ... 5.62
O=C1CC(c2ccc(F)cc2)Oc2cc(F)ccc21 (racemic) ... 6.17
COc1ccc2c(=O)cc(-c3ccc(F)cc3)oc2c1 ... 5.29

IN: Provide pIC50, recorded with Amine oxidase [flavin-containing] B (Homo sapiens, UniProt P27338), of COc1ccc(C2CC(=O)c3ccc(OC)cc3O2)cc1 (racemic)
OUT: 5.14

---

Target: Amine oxidase [flavin-containing] B (Homo sapiens, UniProt P27338)
Type: cell-based, BTI-TN-5B1-4
measured_parameter: pIC50
The value called pIC50 is obtained by taking minus log10 of the concentration in mol/L.

IN: Fill in reported pIC50 for this entry: "COc1ccc(-c2cc(=O)c3ccc(OC)cc3o2)cc1"
OUT: 4.30

IN: Quote pIC50 reported for "COc1ccc(-c2cc(=O)c3ccc(F)cc3o2)cc1" please.
OUT: 5.87

IN: State, in one line, measured pIC50 of COc1ccc2c(c1)OC(c1ccc(C)cc1)CC2=O (racemic)
OUT: 6.26

IN: Given the molecule "O=c1cc(-c2ccccc2)oc2cc(F)ccc12" , write its reported pIC50.
OUT: 4.89

IN: Tell me measured pIC50 for "COc1ccc2c(c1)O[C@H](c1ccc(F)cc1)CC2=O" please.
OUT: 6.80
